Reported inhibition at 10 µM values for the following compounds.
Tested on: KM12
Assay: NCI-60 one-dose screen
Format: cell-based
Conditions: Homo sapiens; KM12, Colon Cancer panel; single dose 10^−5 M; read-out: Growth inhibition %
Measurement Name: inhibition at 10 µM (%)

| Compound | Number |
| --- | --- |
| Fc1ccccc1CNc1c2ccccc2nc2ccccc12 [Compound 8, Acridin-9-yl-(2-fluorobenzyl)-amine] | 57.8 |
| Clc1ccc(CNc2c3ccccc3nc3ccccc23)cc1 [Compound 13, Acridin-9-yl-(4-chlorobenzyl)-amine] | 64.4 |
| COc1ccc2nc3ccccc3c(NCc3ccc(C)cc3)c2c1 [Compound 26] | 62.7 |
| COc1ccc(CNc2c3ccccc3nc3ccccc23)cc1 [Compound 7, Acridin-9-yl-(4-methoxybenzyl)-amine] | 66.8 |
| Fc1cccc(CNc2c3ccccc3nc3ccccc23)c1F [Compound 20, Acridin-9-yl-(2,3-difluorobenzyl)-amine] | 13.1 |
| c1ccc(CCNc2c3ccccc3nc3ccccc23)cc1 [Compound 23, Acridin-9-yl-phenethyl-amine] | 42.6 |
| COc1ccc2nc3ccccc3c(NCc3ccc(F)cc3)c2c1 [Compound 28] | 71.3 |
| COc1ccc(CNc2c3ccccc3nc3ccccc23)cc1F [Compound 19] | 67.2 |

Ref: paper PMC9866191
